Taken from patent US11066369B2.

Target: delF508-CFTR (Homo sapiens, UniProt P13569, DEL508-508)
Construct: functional activity of the CFTR channel (Chloride ion transport) in patient derived primary human bronchial epithelial cells; host or cells: patient-derived primary human bronchial epithelial cells (delF508-CFTR)
Sequence (P13569 with tags, fused parts or gaps DEL508-508): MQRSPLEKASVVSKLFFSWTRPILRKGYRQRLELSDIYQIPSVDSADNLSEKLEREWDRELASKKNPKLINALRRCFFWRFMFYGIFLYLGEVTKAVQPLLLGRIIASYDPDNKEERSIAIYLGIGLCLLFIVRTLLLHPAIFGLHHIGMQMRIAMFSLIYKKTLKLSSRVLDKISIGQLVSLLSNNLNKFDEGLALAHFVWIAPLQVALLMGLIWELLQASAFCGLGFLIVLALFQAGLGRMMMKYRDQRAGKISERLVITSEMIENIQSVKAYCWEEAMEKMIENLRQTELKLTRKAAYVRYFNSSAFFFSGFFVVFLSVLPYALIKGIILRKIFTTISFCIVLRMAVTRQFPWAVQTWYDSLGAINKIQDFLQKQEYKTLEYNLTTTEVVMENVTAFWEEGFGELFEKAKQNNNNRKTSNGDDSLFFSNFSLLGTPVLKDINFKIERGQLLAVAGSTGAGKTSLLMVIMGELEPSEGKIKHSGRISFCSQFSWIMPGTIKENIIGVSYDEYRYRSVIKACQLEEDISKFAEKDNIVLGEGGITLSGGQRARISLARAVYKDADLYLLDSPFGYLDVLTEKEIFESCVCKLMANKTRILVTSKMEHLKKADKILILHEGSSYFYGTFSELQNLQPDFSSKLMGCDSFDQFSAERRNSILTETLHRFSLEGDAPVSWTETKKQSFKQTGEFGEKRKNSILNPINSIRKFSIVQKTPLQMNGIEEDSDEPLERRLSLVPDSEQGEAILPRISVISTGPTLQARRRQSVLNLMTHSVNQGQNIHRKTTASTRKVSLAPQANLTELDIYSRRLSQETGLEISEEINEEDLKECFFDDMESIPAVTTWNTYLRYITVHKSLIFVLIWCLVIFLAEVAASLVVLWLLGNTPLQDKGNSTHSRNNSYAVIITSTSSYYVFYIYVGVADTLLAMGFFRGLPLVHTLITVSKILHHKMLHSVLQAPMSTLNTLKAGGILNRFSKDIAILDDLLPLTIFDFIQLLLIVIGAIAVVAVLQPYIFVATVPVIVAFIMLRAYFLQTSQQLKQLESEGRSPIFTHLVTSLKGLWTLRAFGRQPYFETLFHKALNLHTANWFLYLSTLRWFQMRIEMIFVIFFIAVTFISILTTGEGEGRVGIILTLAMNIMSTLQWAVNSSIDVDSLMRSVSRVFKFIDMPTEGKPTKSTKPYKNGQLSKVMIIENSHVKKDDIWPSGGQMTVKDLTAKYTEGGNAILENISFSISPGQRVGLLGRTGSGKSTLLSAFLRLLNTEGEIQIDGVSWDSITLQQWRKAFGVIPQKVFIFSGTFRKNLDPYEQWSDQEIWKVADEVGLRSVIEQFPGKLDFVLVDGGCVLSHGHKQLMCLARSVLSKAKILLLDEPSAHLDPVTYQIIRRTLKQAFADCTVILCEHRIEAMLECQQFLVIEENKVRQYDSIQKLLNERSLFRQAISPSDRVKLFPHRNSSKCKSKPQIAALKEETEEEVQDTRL
Assay: Measurement of delF508-CFTR functional activity in primary human bronchial epithelial cells (HBECs) using Multi-Transepithelial Clamp Circuit (MTECC-24) assay
Type: cell-based
Conditions: primary CF HBECs; test compound added 24h before assay plus potentiator; relative to reference combination (2 μM corrector + 0.5 μM potentiator)
measuredAttribute: MTECC24 CFHBEC- Amax % (%)

                                   compound  unittext  recordedmeasurement
0  O=S(=O)(Nc1ccc(Cl)c(-c2cccc(F)c2Cl)n1)c1cccc(N2CC(O)C2)n1         %                 69.0
1  COC(=O)C1(N)CCN(c2cccc(S(=O)(=O)Nc3ccc(Cl)c(-c4c(C)cccc4C)n3)n2)CC1         %                 69.5
2  Cc1cccc(C)c1-c1nc(NS(=O)(=O)c2cccc(O[C@@H]3CO[C@H](CO)C3)n2)ccc1Cl         %                 69.5
3  Cc1ccccc1-c1nc(NS(=O)(=O)c2cccc(N3CCN(C(N)=O)CC3)n2)ccc1C(F)(F)F         %                 69.2
4  Cc1cccc(C)c1-c1nc(NS(=O)(=O)c2cccc(N3CC(O)C3)n2)ccc1Cl         %                 71.8
5  Cc1cccc(C)c1-c1nc(NS(=O)(=O)c2cccc(O[C@@H]3COC[C@@H]3O)n2)ccc1Cl (racemic)         %                 71.4
